# assayed-target: pooled human IgG (human); also: test concentration or dose not given here
# method-description: cell-based or functional assay
measurement-label: Enzyme Activity Endpoint Assay (purified): Fab′2

In: Can you share its Enzyme Activity Endpoint Assay (purified): Fab′2? I mean this binder: PRT-197 (enzyme) MEVVEVWPYGQNPNGKTEILSQTEDSESLQRLRDIEDFQAEKKMQNVVYTKWLDGVDVKDHDFRKIVDGNIAYYATPLLNGRGFYDINKDFNRDSDKCAAAVAANMFHYWLDINRDNVDRFLRQNPEKHGIIELPDGQLKLSDFLNTYESDHGYRDKSKLFDFISNNFNGPVWTDKLLDNYINGYAYNYKYGRTIEDPTKNTSKINFFKEVFNEKILTNNHSIRNQNEFSDLLSEALYTGKAIGLSYGPAGLRHSLGHIISVWGADLDADGNVVAIYVTDSDDKKLTIGDERVGLKRYKISTDDENRARLTAYEETDNTGGQIRGLYTLDTGKQAWADYFDKTEQTGTDQAEQLEHHHHHH
Out: 0 ng/µL
